Taken from patent US9403800B2.

test: chemical stability by HPLC; format: physicochemical; settings: determined by HPLC
Metric: half-life (h)

Smiles representation	Metric	Endpoint value
COc1ccc2c(c1)CCCN2S(=O)(=O)c1ccc(N2CCCC2=O)cc1	half-life	37
O=C1CCCN1c1ccc(S(=O)(=O)N2CCCc3ccccc32)cc1	half-life	120

----------
assay: cytotoxicity (Vibrant Cytotox assay), LNCap; format: cell-based; conditions: human, LNCap cells

Compound	IC50 at 24 h
O=C1CCCN1c1ccc(S(=O)(=O)N2CCCc3ccccc32)cc1	> 5 µM
CN1CCN(S(=O)(=O)c2ccc(N3CCCC3=O)cc2)c2ccccc21	> 5 µM
CC1CCc2ccccc2N1S(=O)(=O)c1ccc(N2CCCC2=O)cc1 (stereo not drawn)	> 5 µM

----------
tested on: HCT-116; assay: inhibition of proliferation (PicoGreen DNA assay), HCT-116; format: cell-based; conditions: Homo sapiens
Metric: IC50 (nM)

Molecule	Endpoint value
CC1CCc2ccccc2N1S(=O)(=O)c1ccc(N2CCCC2=O)cc1 (stereo not drawn)	100
O=C1CCCN1c1ccc(S(=O)(=O)N2CCCc3ccccc32)cc1	40
CN1CCN(S(=O)(=O)c2ccc(N3CCCC3=O)cc2)c2ccccc21	15

----------
assay: cytotoxicity (Vibrant Cytotox assay), MDA-MB-231; type: cell-based; details: human, MDA-MB-231 cells; MDA-MB-231, 24 hrs
Parameter: IC50 at 24 h. Scope: all listed entries.
Metric: IC50 at 24 h

Molecule	Endpoint value
CC1CCc2ccccc2N1S(=O)(=O)c1ccc(N2CCCC2=O)cc1 (stereo not drawn)	> 5 µM
CN1CCN(S(=O)(=O)c2ccc(N3CCCC3=O)cc2)c2ccccc21	> 5 µM
O=C1CCCN1c1ccc(S(=O)(=O)N2CCCc3ccccc32)cc1	> 5 µM

----------
Parameter: pIC50. Scope: all listed entries.
system: HCT-116; experiment: viability (Alamar Blue), HCT-116; format: cell-based; conditions: Homo sapiens; HCT-116, 24 hrs
pIC50: −log10 of the molar value.

Compound	pIC50
O=C1CCCN1c1ccc(S(=O)(=O)N2CCCc3ccccc32)cc1	7.52
CN1CCN(S(=O)(=O)c2ccc(N3CCCC3=O)cc2)c2ccccc21	8.05
CC1CCc2ccccc2N1S(=O)(=O)c1ccc(N2CCCC2=O)cc1 (stereo not drawn)	7.28

----------
test system: MDA-MB-231; test: viability (Alamar Blue), MDA-MB-231; assay type: cell-based; details: Homo sapiens; MDA-MB-231, 24 hrs
Parameter: IC50. Scope: all listed entries.
Metric: IC50 (nM)

Compound	Experimental target	Endpoint value
O=C1CCCN1c1ccc(S(=O)(=O)N2CCCc3ccccc32)cc1 [Compound 1]	MDA-MB-231	35
CC1CCc2ccccc2N1S(=O)(=O)c1ccc(N2CCCC2=O)cc1 (stereo not drawn) [Compound 4]	MDA-MB-231	45
CN1CCN(S(=O)(=O)c2ccc(N3CCCC3=O)cc2)c2ccccc21 [Compound 15]	MDA-MB-231	93

----------
assay: pharmacokinetics in rats; conditions: rat, in vivo

Molecule	bioavailability, %
CN1CCN(S(=O)(=O)c2ccc(N3CCCC3)cc2)c2ccccc21 [Compound 31]	11
